Source: patent US12421243B2

- TESTED_SYSTEM: recombinant human non-muscle myosin 2 NM2A (Homo sapiens, UniProt P35579)
- Sequence (P35579 whole entry): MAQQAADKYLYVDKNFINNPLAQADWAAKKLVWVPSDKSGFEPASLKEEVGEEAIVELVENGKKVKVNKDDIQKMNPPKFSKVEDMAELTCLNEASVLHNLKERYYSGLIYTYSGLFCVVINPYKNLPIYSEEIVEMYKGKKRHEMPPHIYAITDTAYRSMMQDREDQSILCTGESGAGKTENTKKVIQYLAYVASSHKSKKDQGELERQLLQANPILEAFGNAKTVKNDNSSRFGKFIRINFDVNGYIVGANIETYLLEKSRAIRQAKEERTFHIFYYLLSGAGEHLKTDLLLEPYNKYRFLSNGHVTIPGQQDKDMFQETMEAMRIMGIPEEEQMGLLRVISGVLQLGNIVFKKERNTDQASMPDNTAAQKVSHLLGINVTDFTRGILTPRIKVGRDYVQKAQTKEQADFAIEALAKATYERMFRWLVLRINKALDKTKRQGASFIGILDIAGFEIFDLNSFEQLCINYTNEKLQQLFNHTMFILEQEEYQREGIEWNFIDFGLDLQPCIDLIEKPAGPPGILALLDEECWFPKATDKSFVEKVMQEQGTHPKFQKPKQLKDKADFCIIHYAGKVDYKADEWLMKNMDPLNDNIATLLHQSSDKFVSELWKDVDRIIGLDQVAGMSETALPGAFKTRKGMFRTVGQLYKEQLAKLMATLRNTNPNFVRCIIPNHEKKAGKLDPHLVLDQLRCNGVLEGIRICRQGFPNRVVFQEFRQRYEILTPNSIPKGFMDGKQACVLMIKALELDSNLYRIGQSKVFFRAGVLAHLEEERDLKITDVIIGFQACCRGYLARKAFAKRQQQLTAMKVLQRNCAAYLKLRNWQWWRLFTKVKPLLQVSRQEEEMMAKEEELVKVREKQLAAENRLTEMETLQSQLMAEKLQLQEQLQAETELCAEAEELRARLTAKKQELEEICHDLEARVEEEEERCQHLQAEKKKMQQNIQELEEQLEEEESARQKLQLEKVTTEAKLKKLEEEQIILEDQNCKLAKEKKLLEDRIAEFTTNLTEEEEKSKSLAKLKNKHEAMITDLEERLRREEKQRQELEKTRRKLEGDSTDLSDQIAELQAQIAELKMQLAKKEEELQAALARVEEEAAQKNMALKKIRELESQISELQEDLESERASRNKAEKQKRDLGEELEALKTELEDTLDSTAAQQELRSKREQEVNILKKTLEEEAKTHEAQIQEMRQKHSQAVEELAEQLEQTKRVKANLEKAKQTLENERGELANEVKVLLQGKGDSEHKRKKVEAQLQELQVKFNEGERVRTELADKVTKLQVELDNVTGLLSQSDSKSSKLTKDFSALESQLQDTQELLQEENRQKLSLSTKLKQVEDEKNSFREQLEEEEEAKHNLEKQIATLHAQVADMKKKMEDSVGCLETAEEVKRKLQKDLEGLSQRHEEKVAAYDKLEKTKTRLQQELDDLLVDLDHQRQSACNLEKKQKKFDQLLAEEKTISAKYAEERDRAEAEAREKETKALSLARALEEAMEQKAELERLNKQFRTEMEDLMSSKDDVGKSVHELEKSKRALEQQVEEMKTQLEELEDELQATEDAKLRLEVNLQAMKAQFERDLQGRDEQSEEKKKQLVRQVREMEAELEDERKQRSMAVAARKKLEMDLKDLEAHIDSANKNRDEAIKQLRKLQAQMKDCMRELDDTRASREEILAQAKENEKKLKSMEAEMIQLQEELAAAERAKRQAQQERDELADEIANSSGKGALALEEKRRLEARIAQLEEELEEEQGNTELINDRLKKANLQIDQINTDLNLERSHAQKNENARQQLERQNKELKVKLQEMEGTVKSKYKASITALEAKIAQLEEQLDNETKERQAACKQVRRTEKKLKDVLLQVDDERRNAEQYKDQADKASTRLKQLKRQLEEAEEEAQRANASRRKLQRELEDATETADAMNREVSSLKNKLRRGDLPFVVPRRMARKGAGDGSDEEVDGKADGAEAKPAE
- PROTOCOL_TEXT: actomyosin steady state ATPase measurement, NM2A
- Assay type: biochemical
- CONDITION_INFO: read-out: % inhibition at 5 μM (or 10 μM if racemate) NM2A; 5 μM (10 μM if racemate); ATPase activity
Use yes (1) when the recorded inhibition at 5 µM is no lower than 9%; use no (0) when it is lower.

>  <MOLECULE>
Cc1cc2c(s1)N=C1N(c3ccc(N4CCOCC4)cc3)CCC1(O)C2=O (stereo not shown)

>  <TESTED_SYSTEM>
recombinant human non-muscle myosin 2 NM2A (Homo sapiens, UniProt P35579)

>  <ASSIGNED_LABEL>
yes (1)

$$$$
>  <MOLECULE>
O=C1c2ccsc2N=C2N(c3ccc(N4CCOCC4)cc3)CCC12O (stereo not shown)

>  <TESTED_SYSTEM>
recombinant human non-muscle myosin 2 NM2A (Homo sapiens, UniProt P35579)

>  <ASSIGNED_LABEL>
no (0)

$$$$
>  <MOLECULE>
O=C1c2ccncc2N=C2N(c3ccccc3)CCC12O (stereo not shown)

>  <TESTED_SYSTEM>
recombinant human non-muscle myosin 2 NM2A (Homo sapiens, UniProt P35579)

>  <ASSIGNED_LABEL>
yes (1)

$$$$
>  <MOLECULE>
O=C1c2sccc2N=C2N(c3ccccc3)CCC12O (stereo not shown)

>  <TESTED_SYSTEM>
recombinant human non-muscle myosin 2 NM2A (Homo sapiens, UniProt P35579)

>  <ASSIGNED_LABEL>
no (0)

$$$$
>  <MOLECULE>
Nc1ccc(N2CC[C@@]3(O)C(=O)c4ccsc4N=C23)cc1

>  <TESTED_SYSTEM>
recombinant human non-muscle myosin 2 NM2A (Homo sapiens, UniProt P35579)

>  <ASSIGNED_LABEL>
no (0)

$$$$
>  <MOLECULE>
O=C1c2cccnc2N=C2N(c3ccccc3)CCC12O (stereo not shown)

>  <TESTED_SYSTEM>
recombinant human non-muscle myosin 2 NM2A (Homo sapiens, UniProt P35579)

>  <ASSIGNED_LABEL>
no (0)

$$$$
>  <MOLECULE>
O=C1c2ccsc2N=C2N(c3ccccc3)CCC12O (stereo not shown)

>  <TESTED_SYSTEM>
recombinant human non-muscle myosin 2 NM2A (Homo sapiens, UniProt P35579)

>  <ASSIGNED_LABEL>
yes (1)

$$$$
>  <MOLECULE>
COc1ccc(N2CC[C@@]3(O)C(=O)c4ccsc4N=C23)cc1

>  <TESTED_SYSTEM>
recombinant human non-muscle myosin 2 NM2A (Homo sapiens, UniProt P35579)

>  <ASSIGNED_LABEL>
yes (1)

$$$$
>  <MOLECULE>
CC(=O)c1ccc(N2CC[C@@]3(O)C(=O)c4ccsc4N=C23)cc1

>  <TESTED_SYSTEM>
recombinant human non-muscle myosin 2 NM2A (Homo sapiens, UniProt P35579)

>  <ASSIGNED_LABEL>
yes (1)

$$$$

----------
- TESTED_SYSTEM: isolated smooth muscle myosin (UniProt P10587)
- Sequence (P10587 whole entry): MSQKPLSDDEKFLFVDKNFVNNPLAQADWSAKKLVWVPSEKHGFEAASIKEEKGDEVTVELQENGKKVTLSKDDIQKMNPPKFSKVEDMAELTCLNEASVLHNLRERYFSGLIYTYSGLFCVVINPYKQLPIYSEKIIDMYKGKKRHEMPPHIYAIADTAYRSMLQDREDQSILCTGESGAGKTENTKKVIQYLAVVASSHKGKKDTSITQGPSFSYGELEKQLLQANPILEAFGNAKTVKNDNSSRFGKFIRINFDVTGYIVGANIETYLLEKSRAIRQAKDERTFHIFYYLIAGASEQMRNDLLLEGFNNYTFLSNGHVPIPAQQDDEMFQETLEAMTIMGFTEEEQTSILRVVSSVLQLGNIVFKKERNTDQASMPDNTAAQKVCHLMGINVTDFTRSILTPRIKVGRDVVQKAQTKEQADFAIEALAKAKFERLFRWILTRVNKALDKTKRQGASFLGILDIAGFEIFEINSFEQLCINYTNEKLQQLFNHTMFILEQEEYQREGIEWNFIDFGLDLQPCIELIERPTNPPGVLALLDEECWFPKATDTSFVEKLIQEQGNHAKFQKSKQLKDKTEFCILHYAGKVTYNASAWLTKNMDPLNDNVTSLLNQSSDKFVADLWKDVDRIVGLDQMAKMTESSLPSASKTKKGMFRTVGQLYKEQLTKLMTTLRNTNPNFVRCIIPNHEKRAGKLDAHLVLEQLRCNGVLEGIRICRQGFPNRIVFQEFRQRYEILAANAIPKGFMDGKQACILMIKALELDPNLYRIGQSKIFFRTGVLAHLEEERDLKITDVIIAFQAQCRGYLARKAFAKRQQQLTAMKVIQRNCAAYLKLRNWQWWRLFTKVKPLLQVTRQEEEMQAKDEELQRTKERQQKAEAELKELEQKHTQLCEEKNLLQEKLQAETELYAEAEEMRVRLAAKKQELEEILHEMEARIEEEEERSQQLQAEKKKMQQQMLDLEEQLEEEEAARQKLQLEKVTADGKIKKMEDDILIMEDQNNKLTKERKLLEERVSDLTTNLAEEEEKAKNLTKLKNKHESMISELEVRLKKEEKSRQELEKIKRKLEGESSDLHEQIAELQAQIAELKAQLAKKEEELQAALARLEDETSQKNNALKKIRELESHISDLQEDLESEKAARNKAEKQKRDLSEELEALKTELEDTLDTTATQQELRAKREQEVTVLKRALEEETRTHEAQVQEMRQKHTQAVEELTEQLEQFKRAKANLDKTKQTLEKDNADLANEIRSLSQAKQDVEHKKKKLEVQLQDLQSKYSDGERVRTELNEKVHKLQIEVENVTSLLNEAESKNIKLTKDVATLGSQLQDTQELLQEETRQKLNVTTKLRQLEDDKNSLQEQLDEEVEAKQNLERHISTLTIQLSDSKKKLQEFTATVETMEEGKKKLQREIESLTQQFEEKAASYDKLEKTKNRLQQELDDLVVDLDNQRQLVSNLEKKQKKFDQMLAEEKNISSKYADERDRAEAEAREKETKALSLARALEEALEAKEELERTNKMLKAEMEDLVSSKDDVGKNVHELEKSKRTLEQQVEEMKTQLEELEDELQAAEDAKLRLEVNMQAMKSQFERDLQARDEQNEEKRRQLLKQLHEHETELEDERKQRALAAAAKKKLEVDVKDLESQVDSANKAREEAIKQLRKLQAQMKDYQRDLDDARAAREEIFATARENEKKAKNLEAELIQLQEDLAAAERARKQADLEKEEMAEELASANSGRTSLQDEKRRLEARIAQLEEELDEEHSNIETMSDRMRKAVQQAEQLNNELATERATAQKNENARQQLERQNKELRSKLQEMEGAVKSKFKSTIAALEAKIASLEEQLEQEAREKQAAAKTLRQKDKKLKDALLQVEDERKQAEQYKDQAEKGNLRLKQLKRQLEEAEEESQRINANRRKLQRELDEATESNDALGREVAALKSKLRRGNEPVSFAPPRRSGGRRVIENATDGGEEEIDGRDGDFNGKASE
- Type: biochemical, chamois
- CONDITION_INFO: 5 μM (10 μM if racemate); ATPase activity
// thresholds for % inhibition at 5 μM (or 10 μM if racemate) Smooth classes: low-valued (below 3%), mid-valued (3% to below 30%), high-valued (30% or more)

>  <COMPOUND>
O=C1c2ccsc2N=C2N(c3ccc(N4CCOCC4)cc3)CCC12O (stereo not drawn) [Compound 188]

>  <ASSIGNED_LABEL>
low-valued

$$$$
>  <COMPOUND>
O=C1c2ccsc2N=C2N(c3ccc(OC(F)(F)F)cc3)CC[C@@]12O [Compound 212]

>  <ASSIGNED_LABEL>
mid-valued

$$$$
>  <COMPOUND>
O=C1c2ccncc2N=C2N(c3ccc(OC(F)(F)F)cc3)CCC12O (stereo not drawn) [Compound 238]

>  <ASSIGNED_LABEL>
mid-valued

$$$$
>  <COMPOUND>
Cc1cc2c(s1)N=C1N(c3ccc(C#N)cc3)CCC1(O)C2=O (stereo not drawn) [Compound 224]

>  <ASSIGNED_LABEL>
high-valued

$$$$
>  <COMPOUND>
Cc1cc2c(s1)N=C1N(c3ccc(OC(F)(F)F)cc3)CCC1(O)C2=O (stereo not drawn) [Compound 223]

>  <ASSIGNED_LABEL>
high-valued

$$$$
>  <COMPOUND>
O=C1c2ccsc2N=C2NCC[C@@]12O [Compound 207]

>  <ASSIGNED_LABEL>
mid-valued

$$$$
>  <COMPOUND>
Cc1ccc(N2CC[C@@]3(O)C(=O)c4ccsc4N=C23)cc1 [Compound 233]

>  <ASSIGNED_LABEL>
mid-valued

$$$$
>  <COMPOUND>
O=C1c2ccncc2N=C2N(c3ccccc3)CCC12O (stereo not drawn) [Compound 174]

>  <ASSIGNED_LABEL>
low-valued

$$$$

----------
- TESTED_SYSTEM: isolated porcine cardiac ventricular myocardium (cardiac) (Sus scrofa)
- Construct: isolated porcine cardiac ventricular myocardium (cardiac); from tissue; host or cells: porcine cardiac ventricle
- PROTOCOL_TEXT: actomyosin steady state ATPase measurement, cardiac myosin
- Assay type: biochemical
- CONDITION_INFO: read-out: % inhibition at 50 μM (or 100 μM if racemate) cardiac; 50 μM (100 μM if racemate); ATPase activity
inhibition at 50 µM below 80% gives no (0); inhibition at 50 µM at or above it gives yes (1).

>  <COMPOUND>
O=C1c2ccsc2N=C2NCC[C@@]12O

>  <ASSIGNED_LABEL>
no (0)

$$$$
>  <COMPOUND>
O=C1c2ccsc2N=C2N(c3cccs3)CC[C@@]12O

>  <ASSIGNED_LABEL>
no (0)

$$$$
>  <COMPOUND>
Cc1ccc(N2CCC3(O)C(=O)c4ccncc4N=C23)cc1 (centres unmarked)

>  <ASSIGNED_LABEL>
no (0)

$$$$
>  <COMPOUND>
COc1ccc(N2CCC3(O)C(=O)c4cc(C)sc4N=C23)cc1 (centres unmarked)

>  <ASSIGNED_LABEL>
yes (1)

$$$$
>  <COMPOUND>
Nc1ccc(N2CC[C@@]3(O)C(=O)c4ccsc4N=C23)cc1

>  <ASSIGNED_LABEL>
no (0)

$$$$
>  <COMPOUND>
O=C1c2ccncc2N=C2N(c3ccccc3)CCC12O (centres unmarked)

>  <ASSIGNED_LABEL>
no (0)

$$$$
>  <COMPOUND>
N#Cc1ccc(N2CC[C@@]3(O)C(=O)c4ccsc4N=C23)cc1

>  <ASSIGNED_LABEL>
yes (1)

$$$$
>  <COMPOUND>
O=C1c2ccsc2N=C2N(c3ccc(N4CCOCC4)cc3)CCC12O (centres unmarked)

>  <ASSIGNED_LABEL>
no (0)

$$$$
>  <COMPOUND>
O=C1c2ccsc2N=C2N(c3ccc(CO)cc3)CC[C@@]12O

>  <ASSIGNED_LABEL>
yes (1)

$$$$
>  <COMPOUND>
Cc1cc2c(s1)N=C1N(c3ccc(CC#N)cc3)CCC1(O)C2=O (centres unmarked)

>  <ASSIGNED_LABEL>
yes (1)

$$$$
>  <COMPOUND>
Cc1cc2c(s1)N=C1N(c3ccc(N4CCOCC4)cc3)CCC1(O)C2=O (centres unmarked)

>  <ASSIGNED_LABEL>
no (0)

$$$$
>  <COMPOUND>
N#CCc1ccc(N2CC[C@@]3(O)C(=O)c4ccsc4N=C23)cc1

>  <ASSIGNED_LABEL>
yes (1)

$$$$
>  <COMPOUND>
COc1ccc(N2CC[C@@]3(O)C(=O)c4ccsc4N=C23)cc1

>  <ASSIGNED_LABEL>
yes (1)

$$$$
>  <COMPOUND>
Cc1nsc2c1C(=O)C1(O)CCN(c3ccccc3)C1=N2 (centres unmarked)

>  <ASSIGNED_LABEL>
no (0)

$$$$
>  <COMPOUND>
Cc1cc2c(s1)N=C1N(c3ccc(C#N)cc3)CCC1(O)C2=O (centres unmarked)

>  <ASSIGNED_LABEL>
yes (1)

$$$$
>  <COMPOUND>
CC(=O)c1ccc(N2CCC3(O)C(=O)c4cc(C)sc4N=C23)cc1 (centres unmarked)

>  <ASSIGNED_LABEL>
yes (1)

$$$$
>  <COMPOUND>
O=C1c2sccc2N=C2N(c3ccccc3)CCC12O (centres unmarked)

>  <ASSIGNED_LABEL>
no (0)

$$$$
>  <COMPOUND>
O=C1c2cccnc2N=C2N(c3ccccc3)CCC12O (centres unmarked)

>  <ASSIGNED_LABEL>
no (0)

$$$$

----------
- PROTOCOL_TEXT: tissue concentrations after intraperitoneal injection into a live rat
- Assay type: in vivo
- CONDITION_INFO: liver, ip, 6 mg i.p., 15 min, read-out: Concentration of compound 188 in tissue samples (μM) liver

>  <COMPOUND>
O=C1c2ccsc2N=C2N(c3ccc(N4CCOCC4)cc3)CCC12O (stereo not shown)

>  <concentration at 15 min>
18 µM

$$$$
